test.system: 5-HT2A receptors (Rattus norvegicus)
measurement.notes: in-vitro affinity to 5-HT2A receptors, displacement of [3H]ketanserine (Example A1)
Format: binding
condition.notes: target not given; description names affinity to 5-HT2A receptors; read-out: IC50
Kindly state pIC50 for each of the entries shown.
One number for each entry, as −log10 of the molar value.

CN1CCN(Cc2cnn(-c3ccc(-c4cc(F)ccc4F)cc3)c2-c2ccco2)CC1
7.44
c1ccc(-c2ccc(-n3ncc(CNCc4ccccn4)c3-c3ccccc3)cc2)cc1
7.64

For each entry beneath this line, provide reported pIC50.
1. Fc1ccccc1-c1c(CN2CCNCC2)cnn1-c1ccc(C(F)(F)F)cc1
2. Cc1cc(CNCc2cnn(-c3ccc(-c4ccccc4)cc3)c2-c2ccccc2)no1
3. CN(C)C1CCN(Cc2cnn(-c3ccc(-c4ccccc4)cc3)c2-c2ccccc2F)CC1

1: 7.37; 2: 6.62; 3: 6.70

====

Kindly state IC50 for each of the entries shown.
test.system: 5-HT2A receptors (Rattus norvegicus)
measurement.notes: in-vitro affinity to 5-HT2A receptors, displacement of [3H]ketanserine (Example A1)
Format: binding
condition.notes: read-out: HT2A IC50
Numbers only, in nM.

Past entries and their recorded results:
CN1CCN(Cc2cnn(-c3ccc(-c4ccsc4)cc3)c2-c2ccco2)CC1
4.5
Nc1ccncc1NCc1cnn(-c2ccc(-c3ccccc3)cc2)c1-c1ccccc1F
180
CCN(CC)Cc1cnn(-c2ccc(-c3ccc(F)cc3)cc2)c1-c1ccccc1Cl
53
Fc1ccccc1-c1c(CNC2CCN(Cc3ccccc3)C2)cnn1-c1ccc(-c2ccccc2)cc1 (centres unmarked)
310
CC1CCN(Cc2cnn(-c3ccc(-c4ccccc4)cc3)c2-c2ccccc2F)CC1
130
Fc1ccccc1-c1c(CN2CC=CCC2)cnn1-c1ccc(-c2ccccc2)cc1
170
CC(C)(C)OC(=O)N1CCN(Cc2cnn(-c3ccc(-c4ccccc4)cc3)c2-c2ccccc2F)CC1
82

Would you kindly look at the next entry?
Please look up its IC50: Fc1ccccc1-c1c(CNC2CN3CCC2CC3)cnn1-c1ccc(-c2ccccc2)cc1 (centres unmarked) 140

====

test.system: 5-HT2A receptors (Rattus norvegicus)
measurement.notes: in-vitro affinity to 5-HT2A receptors, displacement of [3H]ketanserine (Example A1)
Type: binding
condition.notes: read-out: HT2A IC50
From the text: The 5-HT2A receptors are exposed both to [^3H]ketanserine (a substance which is known for its affinity to the receptor) and also to the test compound. The decrease in the affinity of [^3H]ketanserine to the receptor is an indication of the affinity of the test substance to the 5-HT2A receptor.
quantity.measured: IC50 (nM)
Give bare numbers, in nM.

Fc1ccc(CCN2CCN(Cc3cnn(-c4ccccn4)c3-c3ccccc3F)CC2)cc1
53
Fc1ccccc1-c1c(CNC2C3CNCC32)cnn1-c1ccc(-c2ccccc2)cc1 (centres unmarked)
320
OCC(Cc1cnc[nH]1)NCc1cnn(-c2ccc(-c3ccccc3)cc2)c1-c1ccccc1F (centres unmarked)
370
CN1CCN(Cc2cnn(-c3ccc(-c4cccc(F)c4F)cc3)c2-c2ccccc2F)CC1
73
CN1CCN(NCc2cnn(-c3ccc(-c4ccccc4)cc3)c2-c2ccccc2F)CC1
14
CN(C)CCN(C)Cc1cnn(-c2ccc(-c3ccc(F)cc3)cc2)c1-c1ccc(Cl)cc1
240
CN1CCN(NCc2cnn(-c3ccc(-c4ccc(F)cc4)cc3)c2-c2ccccc2)CC1
87

Would you kindly look at the next entry?
Please look up its IC50: CC(C)N1CCN(Cc2cnn(-c3ccc(-c4ccc(F)cc4)cc3)c2-c2ccc(Cl)cc2)CC1 440

====

test.system: 5-HT2A receptors (Rattus norvegicus)
measurement.notes: in-vitro affinity to 5-HT2A receptors, displacement of [3H]ketanserine (Example A1)
Format: binding
condition.notes: target not given; description names affinity to 5-HT2A receptors; read-out: IC50
Kindly state IC50 for each of the entries shown.
Give bare numbers, in nM.

Past entries and their recorded results:
CCN(CC)Cc1cnn(-c2ccc(-c3ccccc3)cc2)c1-c1ccccc1F
55
COCCN(C)Cc1cnn(-c2ccc(-c3ccccc3F)nc2)c1-c1ccccc1F
2000

For each entry beneath this line, provide reported IC50.
1. Fc1ccccc1-c1c(CNCCc2c[nH]cn2)cnn1-c1ccc(-c2ccccc2)cc1
2. NCCc1cnn(-c2ccc(-c3ccccc3)cc2)c1-c1ccccc1F
3. CN1CCC(N(C)Cc2cnn(-c3ccc(-c4ccccc4)cc3)c2-c2ccccc2F)CC1
4. CN1CCN(Cc2cnn(-c3ccc(-c4ccccc4)cc3)c2-c2ccccn2)CC1

170
1400
160
50

For each entry beneath this line, provide reported IC50.
1. Fc1ccc(-c2ccc(-n3ncc(CNc4cccnc4)c3-c3ccccc3F)cn2)cc1
2. CN1CCN(Cc2cnn(-c3ccc(-c4ccc(F)cc4)nc3)c2-c2ccccc2F)CC1

1. 890
2. 120

For each entry beneath this line, provide reported IC50.
1. CN1CCN(Cc2cnn(-c3ccc(-c4ccccc4)nc3)c2-c2ccccc2F)CC1
2. COCCNCc1cnn(-c2ccc(-c3ccccc3)cc2)c1-c1ccccc1F

1: 220; 2: 16

====

test.system: 5-HT2A receptors (Rattus norvegicus)
measurement.notes: in-vitro affinity to 5-HT2A receptors, displacement of [3H]ketanserine (Example A1)
Format: binding
condition.notes: target not given; description names affinity to 5-HT2A receptors; read-out: IC50
Excerpt: The 5-HT2A receptors are exposed both to [^3H]ketanserine (a substance which is known for its affinity to the receptor) and also to the test compound. The decrease in the affinity of [^3H]ketanserine to the receptor is an indication of the affinity of the test substance to the 5-HT2A receptor.
quantity.measured: pIC50
Numbers only, as −log10 of the molar value.

Past entries and their recorded results:
CN1CCN(Cc2cnn(-c3ccc(-c4ccsc4)cc3)c2-c2ccc(F)cc2)CC1
5.96
COc1ccccc1-c1c(CN2CCN(C)CC2)cnn1-c1ccc(-c2ccccc2F)cc1
7.28
CCOC(=O)CNCc1cnn(-c2ccc(-c3ccccc3)cc2)c1-c1cccnc1
6.03

For each entry beneath this line, provide reported pIC50.
1. CN1CC2CC1CN2Cc1cnn(-c2ccc(-c3ccccc3)cc2)c1-c1ccccc1F (stereo not drawn)
2. CN1CCN(Cc2cnn(-c3ccc(-c4ccccc4)cc3)c2C(F)(F)F)CC1
3. CCC1(O)CCN(Cc2cnn(-c3ccc(-c4ccccc4)cc3)c2-c2ccccc2F)CC1
4. Fc1ccccc1-c1c(CN2CCN(Cc3ccncc3)CC2)cnn1-c1ccc(-c2ccccc2)cc1
5. CN1CCN(Cc2cnn(-c3ccc(-c4cc(F)ccc4F)cc3)c2-c2ccccc2)CC1

1. 7.03
2. 6.59
3. 6.55
4. 7.12
5. 6.96

For each entry beneath this line, provide reported pIC50.
1. CC(C)(C)OC(=O)N1CCN(Cc2cnn(-c3ccc(C(F)(F)F)cc3)c2-c2ccccc2F)CC1
2. COC(=O)CCNCc1cnn(-c2ccc(-c3ccccc3)cc2)c1-c1cccnc1

[8.10, 6.08]

====

test.system: 5-HT2A receptors (Rattus norvegicus, UniProt P14842)
Sequence (P14842 whole entry): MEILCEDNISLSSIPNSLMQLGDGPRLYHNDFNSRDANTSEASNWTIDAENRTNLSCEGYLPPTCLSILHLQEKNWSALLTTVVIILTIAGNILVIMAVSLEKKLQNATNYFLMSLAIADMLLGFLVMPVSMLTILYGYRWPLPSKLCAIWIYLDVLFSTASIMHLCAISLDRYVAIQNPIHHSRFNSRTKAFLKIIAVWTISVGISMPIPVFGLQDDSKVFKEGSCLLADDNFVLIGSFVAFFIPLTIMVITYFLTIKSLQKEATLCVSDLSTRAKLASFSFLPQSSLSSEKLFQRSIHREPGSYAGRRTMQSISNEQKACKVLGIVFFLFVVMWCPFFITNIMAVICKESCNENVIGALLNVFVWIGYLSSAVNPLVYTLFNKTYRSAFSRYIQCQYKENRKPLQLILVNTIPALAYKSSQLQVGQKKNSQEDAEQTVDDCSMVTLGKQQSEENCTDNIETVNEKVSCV
measurement.notes: in-vitro affinity to 5-HT2A receptors, displacement of [3H]ketanserine (Example A1)
Type: binding
condition.notes: read-out: HT2A IC50
pIC50: −log10 of the molar value.
# if value of pIC50 reaches 7, tag YES; if it stays below, tag NO

Would you please look over these solved cases?
CN1CCN(Cc2cnn(-c3ccc(-c4ccccc4)cc3)c2-c2ccccc2F)CC1 [Example 926]
YES
Cc1cccc(-c2c(CN3CCN(C)CC3)cnn2-c2ccc(-c3ccc(F)cc3)cc2)c1 [Example 940]
YES
OC1CCN(Cc2cnn(-c3ccc(C(F)(F)F)cn3)c2-c2ccccc2F)C1 (centres unmarked) [Example 1050]
NO
Fc1ccccc1-c1c(CN2CCNCC2)cnn1-c1ccc(-c2ccccc2)cc1 [Example 924]
YES

Determine whether this compound has pIC50 no lower than 7: CN1CCN(Cc2cnn(-c3ccc(-c4ccc(F)cc4)cc3)c2-c2ccc(Cl)cc2)CC1 [Example 1057] NO

Determine whether this compound has pIC50 no lower than 7: Fc1ccccc1-c1c(CCN2CCOCC2)cnn1-c1ccc(-c2ccccc2)cc1 [Example 898] YES

====

test.system: 5-HT2A receptors (Rattus norvegicus)
measurement.notes: in-vitro affinity to 5-HT2A receptors, displacement of [3H]ketanserine (Example A1)
Format: binding
condition.notes: target not given; description names affinity to 5-HT2A receptors; read-out: IC50
quantity.measured: IC50

COCCN(C)Cc1cnn(-c2ccc(-c3ccc(F)cc3)nc2)c1-c1ccccc1F
300 nM
CN1CCN(Cc2cnn(-c3ccc(-c4ccccc4F)cc3)c2-c2ccco2)CC1
25 nM
CC(=O)OCc1cnn(-c2ccc(-c3ccccc3)cc2)c1-c1ccccc1F
1400 nM
Fc1ccccc1-c1c(CN2CCC(N3CCOCC3)CC2)cnn1-c1ccc(-c2ccccc2)cc1
560 nM
CN(C)Cc1cnn(-c2ccc(-c3ccccc3)cc2)c1-c1ccccc1F
21 nM

For each entry beneath this line, provide reported IC50.
1. Fc1ccccc1-c1c(CN2CCCC2)cnn1-c1ccc(-c2ccccc2)cc1
2. Fc1ccccc1-c1c(CCCN2CCOCC2)cnn1-c1ccc(-c2ccccc2)cc1
3. O=C1NCN(c2ccccc2)C12CCN(Cc1cnn(-c3ccc(-c4ccccc4)cc3)c1-c1ccccc1F)CC2
4. Fc1ccccc1-c1c(CN2CCC2)cnn1-c1ccc(-c2ccccc2)cc1

32 nM
23 nM
400 nM
47 nM
